# Test system: barnyardgrass
# method: Test C postemergence
# Assay type: in vivo, Echinochloa crusgalli
# test.context: 500 g ai/ha, postemergence, 10 days, 0 to 100 scale (0 no effect, 100 complete control)
measurement.label: Plant response rating, Barnyardgrass

[
  {
    "molecule": "CCOC(=O)c1ncn(-c2ccc(C)c(C(=O)N3C[C@H](C)Oc4c(Cl)cccc43)c2)n1",
    "experimental.target": "barnyardgrass",
    "recorded.result": 70
  },
  {
    "molecule": "C[C@H]1CN(C(=O)c2cc(-n3cncn3)cc(C(F)(F)F)c2)c2cccc(Cl)c2O1",
    "experimental.target": "barnyardgrass",
    "recorded.result": 20
  },
  {
    "molecule": "Cc1cccc2c1O[C@@H](C)CN2C(=O)c1cccc(-n2cnc(N(C)S(C)(=O)=O)n2)c1",
    "experimental.target": "barnyardgrass",
    "recorded.result": 50
  },
  {
    "molecule": "CCOC[C@H]1CN(C(=O)c2cc(-n3cnc(C4CCC4)n3)cc3c2OCO3)c2cccc(Cl)c2O1",
    "experimental.target": "barnyardgrass",
    "recorded.result": 30
  },
  {
    "molecule": "COc1ccc(-n2cnc(C3CCC3)n2)cc1C(=O)N1C[C@H](C)Oc2c(Cl)cccc21",
    "experimental.target": "barnyardgrass",
    "recorded.result": 60
  },
  {
    "molecule": "Cc1ccc(-n2cnc(C3(C#N)CCC3)n2)cc1C(=O)N1C[C@H](C)Oc2c(Cl)cccc21",
    "experimental.target": "barnyardgrass",
    "recorded.result": 50
  },
  {
    "molecule": "CCOC[C@H]1CN(C(=O)c2cc(-n3cnc(C(C)(C)C)n3)cc3c2OCO3)c2cccc(Cl)c2O1",
    "experimental.target": "barnyardgrass",
    "recorded.result": 20
  },
  {
    "molecule": "Cc1ncn(-c2cccc(C(=O)N3C[C@H](C)Oc4c(Cl)cccc43)c2)n1",
    "experimental.target": "barnyardgrass",
    "recorded.result": 80
  },
  {
    "molecule": "CCOC[C@H]1CN(C(=O)c2cc(-n3cnc(C(C)C)n3)cc3c2OCCO3)c2cccc(Cl)c2O1",
    "experimental.target": "barnyardgrass",
    "recorded.result": 50
  },
  {
    "molecule": "COC[C@H]1CN(C(=O)c2cc(-n3cnc(C(C)(C)O)n3)ccc2OC)c2cccc(Cl)c2O1",
    "experimental.target": "barnyardgrass",
    "recorded.result": 60
  },
  {
    "molecule": "Cc1ccc(-n2cnc(C(C)C)n2)cc1C(=O)N1CC(C(F)(F)F)Oc2c(Cl)cccc21 (single isomer, unassigned)",
    "experimental.target": "barnyardgrass",
    "recorded.result": 20
  },
  {
    "molecule": "CCOC[C@H]1CN(C(=O)c2cc(-n3cnc(C(C)C)n3)ccc2OC)c2cccc(Cl)c2O1",
    "experimental.target": "barnyardgrass",
    "recorded.result": 70
  },
  {
    "molecule": "CCOC[C@H]1CN(C(=O)c2cc(-n3cnc(CC)n3)ccc2C)c2cccc(Cl)c2O1",
    "experimental.target": "barnyardgrass",
    "recorded.result": 80
  },
  {
    "molecule": "CNc1ncn(-c2cccc(C(=O)N3C[C@H](C)Oc4c(C)cccc43)c2)n1",
    "experimental.target": "barnyardgrass",
    "recorded.result": 60
  },
  {
    "molecule": "CC(=O)N(C)c1ncn(-c2cccc(C(=O)N3C[C@H](C)Oc4c(C)cccc43)c2)n1",
    "experimental.target": "barnyardgrass",
    "recorded.result": 60
  }
]
